target: human CB1 receptor (Homo sapiens); construct: expressed in transfected cells; host or cells: HEK293; assay: bioSensAll GAPL-Gi2 BRET biosensor assay (antagonism of CP-55,940); format: cell-based; conditions: HEK293 cells transfected with hCB1 and GAPL-Gi2 biosensor, EC75 of CP-55,940 (0.1 nM), overnight incubation, read-out: CB1 wt Gi2 IC50
experimental_readout: IC50 (nM)

The following compounds have reported results that may help.
| compound | target | IC50 [nM] |
| --- | --- | --- |
| CCNC(=O)CN(C)c1cc(N2CC(CC(N)=O)C2)n2nc(-c3ccccc3Cl)c(-c3ccc(Cl)cc3)c2n1 [Compound 31] | human CB1 receptor (Homo sapiens) | 114 |
| O[C@@H]1CCN(c2cc(-c3ccc(C(F)(F)F)nc3)n3nc(-c4ccccc4Cl)c(-c4ccc(Cl)cc4)c3n2)C1 [Compound 72(R)] | human CB1 receptor (Homo sapiens) | 1.33 |
| CCNC1(C(N)=O)CCN(c2cc(N3CCC[C@H]3CO)nc3c(-c4ccc(Cl)cc4)c(-c4ccccc4Cl)nn23)CC1 [Compound 1] | human CB1 receptor (Homo sapiens) | 1.2 |
| CN(CC(C)(C)O)c1cc(N2CCC(C)(C(N)=O)CC2)n2nc(-c3ccccc3Cl)c(-c3ccc(Cl)cc3)c2n1 [Compound 20] | human CB1 receptor (Homo sapiens) | 5.53 |
| CC(C)(O)COc1cc(N2CCC[C@@H](C(N)=O)C2)n2nc(-c3ccccc3Cl)c(-c3ccc(Cl)cc3)c2n1 [Compound 17(R)] | human CB1 receptor (Homo sapiens) | 17.1 |

a = CC(C)(O)COc1cc(N2CCN(S(=O)(=O)C(F)(F)F)CC2)n2nc(-c3ccc(C#N)nc3)c(-c3ccc(Cl)cc3)c2n1 [Compound 53]
b = C[C@H](CO)Oc1cc(-c2ccc(C(F)(F)F)nc2)n2nc(-c3ccccc3Cl)c(-c3ccc(Cl)cc3)c2n1 [Compound 71(R)]
Could you point out whether the larger IC50 belongs to a or to b ? Give the label under which the chosen entry appears.
b

A = CC1(C(N)=O)CCN(c2cc(N3CCC[C@H]3C(=O)O)nc3c(-c4ccc(Cl)cc4)c(-c4ccccc4Cl)nn23)CC1 [Compound 18]
B = COc1ccc(-c2cc(N3CCC[C@H]3CO)nc3c(-c4ccc(Cl)cc4)c(-c4ccccc4Cl)nn23)cc1 [Compound 5]
C = CNC(=O)CCN(C)c1cc(N2CCC[C@@H](C(N)=O)C2)n2nc(-c3ccccc3Cl)c(-c3ccc(Cl)cc3)c2n1 [Compound 41]
D = CC(=O)NC1(C)CCN(c2cc(N(C)CCC(N)=O)nc3c(-c4ccc(Cl)cc4)c(-c4ccccc4Cl)nn23)CC1 [Compound 27]
# ascending order, key=IC50 Give me the labels in the order the question wants.
D, B, A, C
(D: 1.28 nM, B: 3.69 nM, A: 56.2 nM, C: 93 nM)

A = CNC(=O)[C@H]1CCN1c1cc(N2CCC(C)(C(N)=O)CC2)n2nc(-c3ccccc3Cl)c(-c3ccc(Cl)cc3)c2n1 [Compound 65]
B = CN(CCOCCO)c1cc(N2CCC(C)(C(N)=O)CC2)n2nc(-c3ccccc3Cl)c(-c3ccc(Cl)cc3)c2n1 [Compound 66]
Could you point out whether the larger IC50 belongs to A or to B ? Give the label under which the chosen entry appears.
A

* * *

target: human CB1 receptor (Homo sapiens, UniProt P21554); construct: expressed in transfected cells; host or cells: HEK293; assay: bioSensAll β-arrestin plasma membrane translocation BRET biosensor (+GRK2) assay (antagonism of CP-55,940); assay type: cell-based; details: HEK293 cells transfected with hCB1 and β-arrestin PM translocation biosensor (+GRK2), EC75 of CP-55,940 (100 nM), overnight incubation, read-out: CB1 wt βarr2 IC50
Sequence (P21554 whole entry): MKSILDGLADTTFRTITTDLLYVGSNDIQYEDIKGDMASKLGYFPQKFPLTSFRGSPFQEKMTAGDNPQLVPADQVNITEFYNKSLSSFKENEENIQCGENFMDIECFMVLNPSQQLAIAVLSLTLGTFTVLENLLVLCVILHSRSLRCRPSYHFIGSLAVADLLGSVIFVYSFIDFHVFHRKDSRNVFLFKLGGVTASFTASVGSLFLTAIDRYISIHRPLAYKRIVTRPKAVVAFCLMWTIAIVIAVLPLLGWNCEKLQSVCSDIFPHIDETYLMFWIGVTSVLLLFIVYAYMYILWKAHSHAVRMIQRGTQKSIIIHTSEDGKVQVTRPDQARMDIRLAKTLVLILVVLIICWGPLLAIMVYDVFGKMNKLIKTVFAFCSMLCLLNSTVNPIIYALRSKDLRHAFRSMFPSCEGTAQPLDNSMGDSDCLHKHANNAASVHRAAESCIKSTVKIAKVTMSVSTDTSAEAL
experimental_readout: IC50 (nM)

| molecule | target | endpoint_value |
| --- | --- | --- |
| O[C@@H]1CCN(c2cc(-c3ccc(C(F)(F)F)nc3)n3nc(-c4ccccc4Cl)c(-c4ccc(Cl)cc4)c3n2)C1 [Compound 72(R)] | human CB1 receptor (Homo sapiens, UniProt P21554) | 3.33 |
| N#Cc1ccc(-c2nn3c(N4CC(C(N)=O)C4)cc(N4CCC[C@H]4CO)nc3c2-c2ccc(Cl)cc2)cn1 [Compound 61] | human CB1 receptor (Homo sapiens, UniProt P21554) | 3.65 |
| CNC(=O)CCN(C)c1cc(N2CC(CC(N)=O)C2)n2nc(-c3ccccc3Cl)c(-c3ccc(Cl)cc3)c2n1 [Compound 39] | human CB1 receptor (Homo sapiens, UniProt P21554) | 107 |
| CC1(C(N)=O)CCN(c2cc(N3CCC[C@H]3CO)nc3c(-c4ccc(Cl)cc4)c(-c4ccccc4Cl)nn23)CC1 [Compound 9] | human CB1 receptor (Homo sapiens, UniProt P21554) | 1.84 |
| COC1(C)CN(c2cc(OCC(C)(C)O)nc3c(-c4ccc(Cl)cc4)c(-c4ccc(C#N)nc4)nn23)C1 [Compound 52] | human CB1 receptor (Homo sapiens, UniProt P21554) | 2.56 |
| CC(C)OC1(C(N)=O)CCN(c2cc(OCC(C)(C)O)nc3c(-c4ccc(Cl)cc4)c(-c4ccc(C#N)nc4)nn23)CC1 [Compound 63] | human CB1 receptor (Homo sapiens, UniProt P21554) | 1.62 |

P = C[C@H](O)COc1cc(-c2ccc(C(F)(F)F)nc2)n2nc(-c3ccccc3Cl)c(-c3ccc(Cl)cc3)c2n1 [Compound 70(S)]
Q = CC(C)(O)COc1cc(N2CCC[C@H](C(N)=O)C2)n2nc(-c3ccccc3Cl)c(-c3ccc(Cl)cc3)c2n1 [Compound 17(S)]
Field: lower IC50 | Options: P / Q Give the label under which the chosen entry appears.
P
(P: 8.27 nM, Q: 40.4 nM)

1 = CC(C)(O)COc1cc(N2CCC[C@@H](C(N)=O)C2)n2nc(-c3ccccc3Cl)c(-c3ccc(Cl)cc3)c2n1 [Compound 17(R)]
2 = COc1ccc(-c2cc(N3CCC[C@H]3CO)nc3c(-c4ccc(Cl)cc4)c(-c4ccccc4Cl)nn23)cc1 [Compound 5]
3 = CNC(=O)[C@H]1CCN1c1cc(N2CCC(C)(C(N)=O)CC2)n2nc(-c3ccccc3Cl)c(-c3ccc(Cl)cc3)c2n1 [Compound 65]
# ascending order, key=IC50 Give me the labels in the order the question wants.
2, 3, 1

* * *

target: human CB1 receptor (Homo sapiens, UniProt P21554); construct: expressed in transfected cells; host or cells: HEK293; experiment: bioSensAll β-arrestin plasma membrane translocation BRET biosensor (+GRK2) assay (antagonism of CP-55,940); assay type: cell-based; details: HEK293 cells transfected with hCB1 and β-arrestin PM translocation biosensor (+GRK2), EC75 of CP-55,940 (100 nM), overnight incubation, read-out: CB1 wt βarr2 IC50
pIC50: −log10 of the molar value.
experimental_readout: pIC50

The following compounds have reported results that may help.
| compound | pIC50 |
| --- | --- |
| CC(C)OC1(C(N)=O)CCN(c2cc(OCC(C)(C)O)nc3c(-c4ccc(Cl)cc4)c(-c4ccccc4Cl)nn23)CC1 | 8.54 |
| CC(C)Oc1cc(N(C)CCO)nc2c(-c3ccc(Cl)cc3)c(-c3ccccc3Cl)nn12 | 7.77 |
| CC(C)(O)COc1cc(N2CC(C(N)=O)C2)n2nc(-c3ccc(C#N)nc3)c(-c3ccc(Cl)cc3)c2n1 | 7.66 |
| OC[C@@H]1CCCN1c1cc(N2CCC(C(F)(F)F)CC2)n2nc(-c3ccccc3Cl)c(-c3ccc(Cl)cc3)c2n1 | 8.28 |
| CCOC1(C(N)=O)CCN(c2cc(N(C)CCO)nc3c(-c4ccc(Cl)cc4)c(-c4ccccc4Cl)nn23)CC1 | 8.56 |
| CCNC(=O)CN(C)c1cc(N2CC[C@H](CC(N)=O)C2)n2nc(-c3ccccc3Cl)c(-c3ccc(Cl)cc3)c2n1 | 6.49 |
| CN(CP(C)(C)=O)c1cc(N2CCC(C)(C(N)=O)CC2)n2nc(-c3ccccc3Cl)c(-c3ccc(Cl)cc3)c2n1 | 6.95 |
| CN(CP(C)(C)=O)c1cc(N2CC(CC(N)=O)C2)n2nc(-c3ccccc3Cl)c(-c3ccc(Cl)cc3)c2n1 | 6.94 |
| CC(C)(O)COc1cc(N2CC(C)(C(N)=O)C2)n2nc(-c3ccc(C#N)nc3)c(-c3ccc(Cl)cc3)c2n1 | 8.30 |
| CC(C)(O)COc1cc(N2CC(C)(C#N)C2)n2nc(-c3ccc(C#N)nc3)c(-c3ccc(Cl)cc3)c2n1 | 8.76 |

I = CCNC(=O)CN(C)c1cc(N2CCC(C)(C(N)=O)CC2)n2nc(-c3ccccc3Cl)c(-c3ccc(Cl)cc3)c2n1 [Compound 46]
II = O=S1(=O)CCC(Nc2cc(N3CCC[C@H]3CO)nc3c(-c4ccc(Cl)cc4)c(-c4ccccc4Cl)nn23)CC1
III = CN(CP(C)(C)=O)c1cc(N2CC[C@H](CC(N)=O)C2)n2nc(-c3ccccc3Cl)c(-c3ccc(Cl)cc3)c2n1
# ascending order, key=pIC50 Give me the labels in the order the question wants.
III, I, II
